system: ATP; test: switch fluorescence ratio, 500 uM ATP over buffer (Cy3 cluster intensity, sum of 5 cycles each) (fold (ratio)); higher = stronger signal-on switching upon ATP binding; sequences stand for … in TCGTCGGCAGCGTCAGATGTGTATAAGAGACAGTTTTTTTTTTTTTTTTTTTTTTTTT…TC; settings: aptamer strand: ATP DNA aptamer (quencher-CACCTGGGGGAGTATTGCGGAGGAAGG + anchor), 100 nM annealed; ATP concentration: 500 uM;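 note: ATP exposure 15 min at 22 °C before imaging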
reportedProperty: switch fluorescence ratio

Solved entries (count: 10):
1) TTTGGGACGT    0.978
2) GACGAGCGGG    1
3) TTCATGGGAG    0.99
4) AAGTAGATTG    1
5) TTCAAGTTGG    0.974
6) TGGAAGGGGA    1
7) GAAGGGAGTG    0.986
8) ATGGGTCAAT    1
9) TAGTTGGGGT    1
10) GATATGTTTT    1

Reported switch fluorescence ratio of CTTATCTGGG : 0.999

Reported switch fluorescence ratio of GGGCTGGAGG : 0.983

Reported switch fluorescence ratio of TTTATAGGTT : 1.02

Reported switch fluorescence ratio of TTTGATATAT : 0.972

Reported switch fluorescence ratio of GACCTGTTTT : 0.987

Reported switch fluorescence ratio of TTGGAGGGGG : 1.01

Reported switch fluorescence ratio of AGAATTGGGG : 0.982

Reported switch fluorescence ratio of TGAAAGTATT : 1

Reported switch fluorescence ratio of TCAGATTGCA : 1.01

Reported switch fluorescence ratio of GTTTATTATA : 1

Reported switch fluorescence ratio of TGATAATTTG : 1.01

Reported switch fluorescence ratio of TTTTAAAGTG : 0.993

Reported switch fluorescence ratio of ATGGCCAGCA : 1.01

Reported switch fluorescence ratio of TTAGGGTGCA : 1.01

Reported switch fluorescence ratio of GGGAGCCCTC : 0.996

Reported switch fluorescence ratio of TAGTCGGAGA : 1.01

Reported switch fluorescence ratio of TAGGGGGCCA : 1.01

Reported switch fluorescence ratio of ATAGGGGGTT : 0.98

Reported switch fluorescence ratio of GTGGTAGCCG : 1

Reported switch fluorescence ratio of ATGGTTAGGT : 1.02

Reported switch fluorescence ratio of AGTGGAAGCA : 0.972

Reported switch fluorescence ratio of ATTTGGGGCT : 0.981

Reported switch fluorescence ratio of TTTTTACATC : 1

Reported switch fluorescence ratio of GAGATTGCGG : 0.985
